target: PDE4B: The catalytic domain of human PDE4B from S152-S528 (Homo sapiens, UniProt Q07343); construct: His6 (N); thrombin cleavage site (N); made in house; host or cells: E. coli; experiment: PDE4 IC50 determination by Scintillation Proximity Assay, PDE4B; assay type: biochemical; settings: Table 1B, Formula I compounds; read-out: IC50 PDE4B
Sequence (Q07343 with tags, fused parts or gaps): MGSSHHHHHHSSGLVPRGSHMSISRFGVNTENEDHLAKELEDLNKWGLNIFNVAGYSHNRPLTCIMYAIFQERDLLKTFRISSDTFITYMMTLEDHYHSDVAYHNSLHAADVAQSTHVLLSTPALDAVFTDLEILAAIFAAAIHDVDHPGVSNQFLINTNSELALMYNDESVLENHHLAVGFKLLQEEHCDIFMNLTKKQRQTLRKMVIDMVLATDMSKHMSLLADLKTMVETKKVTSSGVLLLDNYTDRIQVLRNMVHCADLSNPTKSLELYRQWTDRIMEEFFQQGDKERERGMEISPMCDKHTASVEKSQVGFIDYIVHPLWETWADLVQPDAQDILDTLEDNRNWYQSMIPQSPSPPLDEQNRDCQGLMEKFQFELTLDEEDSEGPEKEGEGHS
Measured Attribute: IC50

Input: Entry N#Cc1c(Nc2ccc3c(c2)CCC3)sc(C(=O)c2ccc(-c3ccccn3)s2)c1N , system PDE4B: The catalytic domain of human PDE4B from S152-S528 (Homo sapiens, UniProt Q07343): what IC50 was measured?
Output: < 10 µM

Input: Entry NC(=O)c1c(NC2CCCC2)sc(C(=O)c2cc(-c3ccc(N)cc3)no2)c1N , system PDE4B: The catalytic domain of human PDE4B from S152-S528 (Homo sapiens, UniProt Q07343): what IC50 was measured?
Output: < 10 µM

Input: Entry COc1ccc(Nc2sc(C(=O)c3ccccn3)c(N)c2C#N)cc1 , system PDE4B: The catalytic domain of human PDE4B from S152-S528 (Homo sapiens, UniProt Q07343): what IC50 was measured?
Output: > 10 µM

Input: Entry CC(C)Nc1sc(C(=O)c2cc(-c3ccccc3)no2)c(N)c1C#N , system PDE4B: The catalytic domain of human PDE4B from S152-S528 (Homo sapiens, UniProt Q07343): what IC50 was measured?
Output: < 10 µM

Input: Entry N#Cc1c(NCCN2CCCCC2)sc(C(=O)c2cc(-c3ccccc3)no2)c1N , system PDE4B: The catalytic domain of human PDE4B from S152-S528 (Homo sapiens, UniProt Q07343): what IC50 was measured?
Output: > 10 µM

Input: Entry CC(C)(C)Nc1sc(C(=O)c2cc(-c3ccccc3)no2)c(N)c1C#N , system PDE4B: The catalytic domain of human PDE4B from S152-S528 (Homo sapiens, UniProt Q07343): what IC50 was measured?
Output: < 10 µM

Input: Entry CCC(C)Nc1sc(C(=O)c2ccc(Oc3ccccc3)cc2)c(N)c1C#N (stereo not shown) , system PDE4B: The catalytic domain of human PDE4B from S152-S528 (Homo sapiens, UniProt Q07343): what IC50 was measured?
Output: < 10 µM

Input: Entry Cc1ccc(C(=O)c2sc(NC3CCOC3=O)c(C#N)c2N)c(C)c1 (stereo not shown) , system PDE4B: The catalytic domain of human PDE4B from S152-S528 (Homo sapiens, UniProt Q07343): what IC50 was measured?
Output: < 10 µM

Input: Entry N#Cc1c(NC2CCCC2)sc(C(=O)c2csc(-c3ccccc3)n2)c1N , system PDE4B: The catalytic domain of human PDE4B from S152-S528 (Homo sapiens, UniProt Q07343): what IC50 was measured?
Output: < 10 µM

Input: Entry CCOC(=O)c1cc(C(=O)c2sc(NCCN3CCCCC3)c(C#N)c2N)on1 , system PDE4B: The catalytic domain of human PDE4B from S152-S528 (Homo sapiens, UniProt Q07343): what IC50 was measured?
Output: < 10 µM

Input: Entry Cc1c(C(=O)c2sc(Nc3cccc(C#N)c3)c(C#N)c2N)cnn1-c1ccccc1 , system PDE4B: The catalytic domain of human PDE4B from S152-S528 (Homo sapiens, UniProt Q07343): what IC50 was measured?
Output: < 10 µM

Input: Entry COC(=O)C(CCSC)Nc1sc(C(=O)c2ccc(C)cc2C)c(N)c1C#N (stereo not shown) , system PDE4B: The catalytic domain of human PDE4B from S152-S528 (Homo sapiens, UniProt Q07343): what IC50 was measured?
Output: < 10 µM

Input: Entry N#Cc1c(Nc2ccccc2)sc(C(=O)C2CC2)c1N , system PDE4B: The catalytic domain of human PDE4B from S152-S528 (Homo sapiens, UniProt Q07343): what IC50 was measured?
Output: < 10 µM

Input: Entry CC(C)Nc1sc(C(=O)c2cc(-c3ccc(Cl)c(Cl)c3)no2)c(N)c1C#N , system PDE4B: The catalytic domain of human PDE4B from S152-S528 (Homo sapiens, UniProt Q07343): what IC50 was measured?
Output: < 10 µM

Input: Entry N#Cc1c(NC2CCCC2)sc(C(=O)c2ccccn2)c1N , system PDE4B: The catalytic domain of human PDE4B from S152-S528 (Homo sapiens, UniProt Q07343): what IC50 was measured?
Output: < 10 µM

Input: Entry COc1ccc(C(=O)c2sc(Nc3ccc(F)cc3)c(C#N)c2N)cc1 , system PDE4B: The catalytic domain of human PDE4B from S152-S528 (Homo sapiens, UniProt Q07343): what IC50 was measured?
Output: < 10 µM

Input: Entry COC(=O)C(CC(C)C)Nc1sc(C(=O)c2csc3ccccc23)c(N)c1C#N (stereo not shown) , system PDE4B: The catalytic domain of human PDE4B from S152-S528 (Homo sapiens, UniProt Q07343): what IC50 was measured?
Output: < 10 µM

Input: Entry COc1ccc(Nc2sc(C(=O)c3ccccc3)c(N)c2C#N)cc1 , system PDE4B: The catalytic domain of human PDE4B from S152-S528 (Homo sapiens, UniProt Q07343): what IC50 was measured?
Output: < 10 µM

Input: Entry COC(=O)C(CC(C)C)Nc1sc(C(=O)c2cc(-c3ccc(Cl)c(Cl)c3)no2)c(N)c1C#N (stereo not shown) , system PDE4B: The catalytic domain of human PDE4B from S152-S528 (Homo sapiens, UniProt Q07343): what IC50 was measured?
Output: > 10 µM

Input: Entry COC(=O)c1ccccc1Nc1sc(C(=O)c2cnn(-c3ccccc3)c2C)c(N)c1C#N , system PDE4B: The catalytic domain of human PDE4B from S152-S528 (Homo sapiens, UniProt Q07343): what IC50 was measured?
Output: < 10 µM

Input: Entry N#Cc1c(NCc2cccc(Cl)c2)sc(C(=O)c2cc(-c3ccccc3)no2)c1N , system PDE4B: The catalytic domain of human PDE4B from S152-S528 (Homo sapiens, UniProt Q07343): what IC50 was measured?
Output: > 10 µM

Input: Entry COc1ccc(Nc2sc(C(=O)c3cc(OC)ccc3OC)c(N)c2C#N)cc1 , system PDE4B: The catalytic domain of human PDE4B from S152-S528 (Homo sapiens, UniProt Q07343): what IC50 was measured?
Output: < 10 µM

Input: Entry Cc1ccc(C(=O)c2sc(Nc3ccccc3)c(C#N)c2N)cc1 , system PDE4B: The catalytic domain of human PDE4B from S152-S528 (Homo sapiens, UniProt Q07343): what IC50 was measured?
Output: < 10 µM

Input: Entry Cc1ccc(C2CC(=O)Nc3sc(C(N)=O)c(N)c32)cc1 (stereo not shown) , system PDE4B: The catalytic domain of human PDE4B from S152-S528 (Homo sapiens, UniProt Q07343): what IC50 was measured?
Output: > 10 µM

Input: Entry N#Cc1c(NC2CCCC2)sc(C(=O)c2ccsc2)c1N , system PDE4B: The catalytic domain of human PDE4B from S152-S528 (Homo sapiens, UniProt Q07343): what IC50 was measured?
Output: < 10 µM

Input: Entry COC(=O)C(CC(C)C)Nc1sc(C(=O)c2cnn(-c3ccccc3)c2C)c(N)c1C#N (stereo not shown) , system PDE4B: The catalytic domain of human PDE4B from S152-S528 (Homo sapiens, UniProt Q07343): what IC50 was measured?
Output: < 10 µM

Input: Entry N#Cc1c(Nc2ccc(Oc3ccccc3)cc2)sc(C(N)=O)c1N , system PDE4B: The catalytic domain of human PDE4B from S152-S528 (Homo sapiens, UniProt Q07343): what IC50 was measured?
Output: > 10 µM

Input: Entry COc1ccc(CNc2sc(C(=O)c3ccc(-c4ccccn4)s3)c(N)c2C#N)cc1OC , system PDE4B: The catalytic domain of human PDE4B from S152-S528 (Homo sapiens, UniProt Q07343): what IC50 was measured?
Output: < 10 µM

Input: Entry N#Cc1c(NC2CCCC2)sc(C(=O)c2ccc(-c3ccccc3)s2)c1N , system PDE4B: The catalytic domain of human PDE4B from S152-S528 (Homo sapiens, UniProt Q07343): what IC50 was measured?
Output: < 10 µM

Input: Entry CC(C)Nc1sc(C(=O)c2ccc(Cl)c(Cl)c2)c(N)c1C#N , system PDE4B: The catalytic domain of human PDE4B from S152-S528 (Homo sapiens, UniProt Q07343): what IC50 was measured?
Output: < 10 µM

Input: Entry N#Cc1c(Nc2ccc(Oc3ccccc3)cc2)sc(C(=O)c2ccccn2)c1N , system PDE4B: The catalytic domain of human PDE4B from S152-S528 (Homo sapiens, UniProt Q07343): what IC50 was measured?
Output: < 10 µM

Input: Entry COC(=O)C(CC(C)C)Nc1sc(C(=O)c2coc3ccccc23)c(N)c1C#N (stereo not shown) , system PDE4B: The catalytic domain of human PDE4B from S152-S528 (Homo sapiens, UniProt Q07343): what IC50 was measured?
Output: < 10 µM

Input: Entry N#Cc1c(Nc2ccc(Oc3ccccc3)cc2)sc(C(=O)C2CC2)c1N , system PDE4B: The catalytic domain of human PDE4B from S152-S528 (Homo sapiens, UniProt Q07343): what IC50 was measured?
Output: < 10 µM

Input: Entry CC(C)CNc1sc(C(=O)c2cc(-c3ccccc3)no2)c(N)c1C#N , system PDE4B: The catalytic domain of human PDE4B from S152-S528 (Homo sapiens, UniProt Q07343): what IC50 was measured?
Output: < 10 µM
